Recorded measurements of IC50, one per entry
TGT: 84V90M HIV protease (Human immunodeficiency virus type 1 group M subtype B, UniProt P04585, I572V/L578M)
METHOD_DESCRIPTION: biochemical
Set-up: species or system HIV-1
CONDITION_INFO: Enzymatic assay, 84V90M; read-out: 84V90M IC50/nM
Provide the reading as a plain figure in nM.

Example entries begin here.
CCOC(=O)C(C)NP(=O)(COc1cccc(CN2C(=O)N(Cc3ccc4[nH]nc(N)c4c3)C(Cc3ccccc3)C(O)C(O)C2Cc2ccccc2)c1)NC(C)C(=O)OCC (stereo not drawn)    202
Nc1n[nH]c2ccc(CN3C(=O)N(CCCCO)C(Cc4ccccc4)C(O)C(O)C3Cc3ccccc3)cc12 (stereo not drawn)    31

Turning now to a further compound:
Any idea what its IC50 is? The compound is CCCCOC(=O)C(C)NP(=O)(COc1cccc(CN2C(=O)N(Cc3ccc4[nH]nc(N)c4c3)C(Cc3ccccc3)C(O)C(O)C2Cc2ccccc2)c1)NC(C)C(=O)OCCCC (stereo not drawn)
103

----------
// reported EC50 for each item listed
System: recombinant HIV-1 30N 50S 82I 88D
METHOD_DESCRIPTION: microbe, parasite or virus in culture
Type: cell-based
CONDITION_INFO: MT-4 cells, strain printed as 30N 82I 88D; read-out: Cell-based assay (MT-4) EC50/nM 30N 82I 88D

CCOP(=O)(COc1ccc(CC2C(O)C(O)C(Cc3ccccc3)N(Cc3ccccc3)C(=O)N2Cc2ccccc2)cc1)OCC (centres unmarked)    293 nM

Consider the additional compound presented here.
// returns reported EC50 for input CCOP(=O)(CCNC(=O)Oc1ccc(CC2C(O)C(O)C(Cc3ccc(OC)cc3)N(Cc3cccc(N)c3)C(=O)N2Cc2cccc(N)c2)cc1)OCC (centres unmarked) [OCH3/Ph-mNH2/OCONH(CH2)2PO3Et2]
77 nM

----------
Tested on: wild-type HIV-1 strain IIIB
METHOD_DESCRIPTION: microbe, parasite or virus in culture
Type: cell-based
Parameters: scale not given here
MEASURE_NAME: EC50 (nM)

CCOP(=O)(COc1ccc(C[C@H](NC(=O)O[C@H]2CO[C@H]3OCC[C@H]32)[C@H](O)CN(CC(C)C)S(=O)(=O)c2ccc([N+](=O)[O-])cc2)cc1)OCC    + +
CCCCOC(=O)C(C)OP(=O)(COc1ccc(C[C@H](NC(=O)O[C@H]2CO[C@H]3OCC[C@H]32)[C@H](O)CN(CC(C)C)S(=O)(=O)c2cccc(N)c2)cc1)Oc1ccccc1 (stereo partly drawn)    + +
COc1ccc(S(=O)(=O)N(CC(C)C)C[C@@H](O)[C@H](Cc2ccc(OCP(=O)(OCc3ccccc3)OCc3ccccc3)cc2)NC(=O)OC2CCOC2)cc1 (stereo partly drawn)    + + +

----------
Tested on: WT HIV-1
METHOD_DESCRIPTION: microbe, parasite or virus in culture
Type: cell-based
CONDITION_INFO: read-out: Cell-based assay (MT-4) EC50/nM WT
Reported EC50 is given for each of the following compounds.
Report field: quantity (unit follows the number).

Solved cases below.
Nc1n[nH]c2ccc(CN3C(=O)N(CCCOCP(=O)(O)O)C(Cc4ccccc4)C(O)C(O)C3Cc3ccccc3)cc12 (stereo not shown)    1070 nM
CCCCN1C(=O)N(Cc2ccc3[nH]nc(N)c3c2)C(Cc2ccccc2)C(O)C(O)C1Cc1ccccc1 (stereo not shown)    54 nM
Nc1n[nH]c2ccc(CN3C(=O)N(CCCCO)C(Cc4ccccc4)C(O)C(O)C3Cc3ccccc3)cc12 (stereo not shown)    253 nM

// moving on: another record for EC50
For WT HIV-1, provide EC50 of Nc1n[nH]c2ccc(CN3C(=O)N(Cc4cccc(OCc5ccccc5)c4)C(Cc4ccccc4)C(O)C(O)C3Cc3ccccc3)cc12 (stereo not shown) please.
218 nM

----------
TGT: recombinant HIV-1 protease (Human immunodeficiency virus type 1 group M subtype B, UniProt P04585)
Construct: Enzyme: recombinant HIV-1 protease expressed in E.Coli; purchased Bachem California, Inc. H-9040; host or cells: E. coli
METHOD_DESCRIPTION: biochemical
CONDITION_INFO: Ki
pKi: −log10 of the molar value.
We begin with a simple list: items and their reported pKi.

COC(=O)N[C@H](C(=O)N[C@@H](Cc1ccccc1)[C@@H](O)CN(Cc1ccc(-c2ccccn2)cc1)NC(=O)[C@@H](NC(=O)OC)C(C)(C)C)C(C)(C)C [Atazanavir, reference compound]    10.00 to 11.00

Then this compound:
pKi for Cc1cccc(C)c1OCC(=O)N[C@@H](Cc1ccccc1)[C@@H](O)C[C@H](Cc1ccccc1)NC(=O)[C@H](C(C)C)N1CCCNC1=O [Lopinavir, reference compound] ?
10.00 to 11.00

----------
System: WT HIV-1
METHOD_DESCRIPTION: microbe, parasite or virus in culture
Format: cell-based
CONDITION_INFO: Human immunodeficiency virus 1, read-out: Cell-based assay (MT-4) EC50/nM WT
MEASURE_NAME: EC50 (nM)
Give the quantity in nM, number only.

These solved cases illustrate the format of a correct answer.
O=C(O)c1cccc(CN2C(=O)N(Cc3ccc(O)cc3)C(Cc3ccccc3)C(O)C(O)C2Cc2ccccc2)c1 (centres unmarked)    3060
CCOP(=O)(COCCCCN1C(=O)N(Cc2ccc3[nH]nc(N)c3c2)C(Cc2ccccc2)C(O)C(O)C1Cc1ccccc1)OCC (centres unmarked) [CH2OCH2PO3Et2]    119
CCOP(=O)(COc1ccc(CC2C(O)C(O)C(Cc3ccc(O)cc3)N(Cc3ccc(O)cc3)C(=O)N2Cc2ccc(O)cc2)cc1)OCC (centres unmarked) [OH, Ph-pOH, OCH2PO3Et2]    285
Nc1n[nH]c2ccc(CN3C(=O)N(CCCCOCP(=O)(O)O)C(Cc4ccccc4)C(O)C(O)C3Cc3ccccc3)cc12 (centres unmarked) [CH2 OCH2PO3H2]    1760

Let us examine a further case.
Need EC50 of O=C1N(Cc2ccccc2)[C@H](Cc2ccccc2)[C@H](O)[C@@H](O)[C@@H](Cc2ccccc2)N1Cc1ccc2[nH]ncc2c1 [reference compound] , thanks.
193

----------
TGT: recombinant HIV-1 protease (Human immunodeficiency virus type 1 group M subtype B, UniProt P04585)
Construct: Enzyme: recombinant HIV-1 protease expressed in E.Coli; purchased Bachem California, Inc. H-9040; host or cells: E. coli
METHOD_DESCRIPTION: biochemical
CONDITION_INFO: read-out: Ki
MEASURE_NAME: Ki

Study these solved cases before continuing.
CC(C)CN(C[C@@H](O)[C@H](Cc1ccc(OCP(=O)(Oc2ccccc2)Oc2ccccc2)cc1)NC(=O)OC1CCOC1)S(=O)(=O)c1ccc(N)cc1 (some centres unmarked)    0.1 to 1 nM
COc1ccc(S(=O)(=O)N(CC(C)C)CC(O)C(CC2=CCN(CCP(=O)(OCc3ccccc3)OCc3ccccc3)CC2)NC(=O)OC2COC3OCCC23)cc1 (centres unmarked) [drawing 673]    > 1 nM
CCCCOC(=O)C(C)NP(=O)(COc1cccc(CN2C(=O)N(Cc3ccc4[nH]nc(N)c4c3)C(Cc3ccccc3)C(O)C(O)C2Cc2ccccc2)c1)NC(C)C(=O)OCCCC (centres unmarked)    1.28 nM

Return reported Ki; argument: COc1ccc(S(=O)(=O)N(CC(C)C)CC(O)C(Cc2ccc(NCP(=O)(O)O)cc2)NC(=O)OC2COC3OCCC23)cc1 (centres unmarked)
0.1 to 1 nM

Consider next the compound Nc1n[nH]c2ccc(CN3C(=O)N(CCCCO)C(Cc4ccccc4)C(O)C(O)C3Cc3ccccc3)cc12 (centres unmarked) in the same way.
0.017 nM

----------
METHOD_DESCRIPTION: in vitro
CONDITION_INFO: human
MEASURE_NAME: CC50

CCOP(=O)(COc1ccc(CC(NC(=O)OC2COC3OCCC23)C(O)CN(CC(C)C)S(=O)(=O)c2ccc(OC)cc2)cc1)OCc1ccccc1 (stereo not shown) [drawing 608 R1=OEt R2=OBn]    < 5 µM
COc1ccc(S(=O)(=O)N(CC(C)C)C[C@@H](O)[C@H](Cc2ccccc2)NC(=O)O[C@H]2CO[C@H]3OCC[C@H]32)cc1 [Example 94-003, reference compound]    5 to 50 µM

So what does the record say about CC50 for COc1ccc(S(=O)(=O)N(CC(C)C)CC(O)C(Cc2ccc(OCP(=O)(O)O)cc2)NC(=O)OC2COC3OCCC23)cc1 (stereo not shown) [drawing 608 R1=OH R2=OH] ?
> 50 µM

Follow-up entry: CC(C)CN(CC(O)C(Cc1ccc(OCP(=O)(OCc2ccccc2)OCc2ccccc2)cc1)NC(=O)OC1COC2OCCC12)S(=O)(=O)c1ccc(OC(F)(F)F)cc1 (stereo not shown)
5 to 50 µM

Likewise for CC(C)CN(C[C@@H](O)[C@H](Cc1ccccc1)NC(=O)O[C@H]1CCOC1)S(=O)(=O)c1ccc(N)cc1 [Amprenavir, reference compound] ?
> 50 µM

Try this compound next: CCOC(=O)C(C)NP(=O)(COc1ccc(CC(NC(=O)OC2COC3OCCC23)C(O)CN(CC(C)C)S(=O)(=O)c2ccc(OC)cc2)cc1)NC(C)C(=O)OCC (stereo not shown) [drawing 612 R1=Ala-Et R2=Ala-Et]
> 50 µM

Another compound to look at: CCOP(=O)(COc1ccc(C[C@H](NC(=O)O[C@H]2CO[C@H]3OCC[C@H]32)[C@H](O)CN(CC(C)C)S(=O)(=O)c2ccc(OC)cc2)cc1)OCC
50 µM
